molecular target: T1, purified human CD117 ectodomain (R&D Systems #332-SR) (human, UniProt P10721 26-524); test: BLI, purified IgG on sensor, soluble ectodomain; apparent monovalent
T1 construct: extracellular domain; Bought protein; also called c-kit; purified recombinant human CD117 ectodomain
T1 sequence (P10721 26-524): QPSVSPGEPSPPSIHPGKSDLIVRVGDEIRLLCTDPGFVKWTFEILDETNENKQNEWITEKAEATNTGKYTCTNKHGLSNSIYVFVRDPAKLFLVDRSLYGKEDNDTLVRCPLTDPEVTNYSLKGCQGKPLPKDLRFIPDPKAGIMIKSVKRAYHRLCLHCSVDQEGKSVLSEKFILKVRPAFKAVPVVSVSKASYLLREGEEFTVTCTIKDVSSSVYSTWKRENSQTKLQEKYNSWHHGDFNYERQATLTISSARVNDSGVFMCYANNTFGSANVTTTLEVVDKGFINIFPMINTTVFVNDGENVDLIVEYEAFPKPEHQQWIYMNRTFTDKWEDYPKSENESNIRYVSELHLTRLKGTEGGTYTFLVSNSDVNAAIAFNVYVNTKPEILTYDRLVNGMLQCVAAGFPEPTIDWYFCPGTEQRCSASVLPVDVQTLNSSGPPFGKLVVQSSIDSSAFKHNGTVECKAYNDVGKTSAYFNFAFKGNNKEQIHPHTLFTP
koff vs 0.0005 s⁻¹: at or above is YES, below is NO.

BINDER	LABEL_VALUE
HC-23/LC-23 (Ab23) (antibody, IgG1, V domains shown, From rat immunization/hybridoma; purified IgG in BLI; also called 023) VH: EVQLQQYGAELGKPGTSVRLSCKVSGYNIRNTYIHWVHQRPGEGLEWIGRIDPTNGNTISAEKFKSKATLTADTSSNTAYMQFSQLKSDDTAIYFCAMNYEGYADYWGQGVMVTVSS VL: DIQMTQSPSFLSASVGDRLTINCKASQNINKYLNWYQQKLGEAPKRLIFKTNSLQTGIPSRFSGSGSGTDYTLTISSLQPEDVATYFCFQYNIGFTFGAGTKLELK	YES
HC-24/LC-24 (Ab24) (antibody, IgG1, V domains shown, From rat immunization/hybridoma; purified IgG in BLI; also called 024) VH: EVQLVESGGGLVQSGRSLKLSCAASGFTVSDYYMAWVRQAPTKGLEWVATINYDGSTTYHRDSVKGRFTISRDNAKSTLYLQMDSLRSEDTATYYCARHGDYGYHYGAYYFDYWGQGVMVTVSS VL: DIVLTQSPALAVSLGQRATISCRASQTVSLSGYNLIHWYQQRTGQQPKLLIYRASNLAPGIPARFSGSGSGTDFTLTISPVQSDDIATYYCQQSRESWTFGGGTNLEMK	NO
HC-10/LC-10 (Ab10) (antibody, IgG1, V domains shown, Purified IgG; also called 010) VH: QVQLVQSGAAVKKPGESLKISCKGSGYRFTTYWIGWVRQMPGKGLEWMGIIYPGDSDTRYSPSFQGQVTISAGKSISTAYLQWSSLKASDTAMYYCARHGRGYNGYEGAFDIWGQGTMVTVSS VL: NIQMTQSPSSLSTSVGDRVTITCRASQGIGTSLAWYQQKPGKPPKLLIYDASSLESGVPSRLSGSGSGTDFTLTISSLQPEDFATYYCQQSNSYPITFGQGTRLEIK	YES
HC-5/LC-5 (Ab5) (antibody, IgG1, V domains shown, Purified IgG; also called 005) VH: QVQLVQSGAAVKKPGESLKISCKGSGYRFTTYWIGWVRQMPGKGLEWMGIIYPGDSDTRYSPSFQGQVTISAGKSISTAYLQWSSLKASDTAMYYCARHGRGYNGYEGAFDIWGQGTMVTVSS VL: NIQMTQSPSSLSASVGDRVTITCRASQAISDYLAWFQQKPGKAPKLLIYDASNLETGVPSRFSGSGSGTDFTLTISSLQPEDFATYYCQQLNSYPLTFGGGTKVEIK	NO
HC-15/LC-15 (Ab15) (antibody, IgG1, V domains shown, Purified IgG; also called 015) VH: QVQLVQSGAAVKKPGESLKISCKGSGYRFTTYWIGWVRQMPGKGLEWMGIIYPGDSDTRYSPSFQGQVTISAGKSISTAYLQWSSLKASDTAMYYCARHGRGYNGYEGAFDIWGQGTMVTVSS VL: AIQLTQSPSSLSASVGDRVTITCRASQGIGSALAWYQQKPGIGPKLLIYDASTLESGVPARFSGSGSRTDFTLTITSLQPEDFATYYCQQFNGYPLTFGGGTKLEIK	NO
HC-22/LC-22 (Ab22) (antibody, IgG1, V domains shown, From rat immunization/hybridoma; purified IgG in BLI; also called 022) VH: QVQLKESGPGLVQPSQTLSLTCTVSGFSLTSYLVHWVRQPPGKTLEWVGLMWNDGDTSYNSALKSRLSISRDTSKSQVFLKMHSLQAEDTATYYCARESNLGFTYWGHGTLVTVSS VL: DIQMTQSPASLSASLEEIVTITCKASQGIDDDLSWYQQKPGKSPQLLIYDVTRLADGVPSRFSGSRSGTQYSLKISRPQVADSGIYYCLQSYSTPYTFGAGTKLELK	NO
HC-12/LC-12 (Ab12) (antibody, IgG1, V domains shown, Purified IgG; also called 012) VH: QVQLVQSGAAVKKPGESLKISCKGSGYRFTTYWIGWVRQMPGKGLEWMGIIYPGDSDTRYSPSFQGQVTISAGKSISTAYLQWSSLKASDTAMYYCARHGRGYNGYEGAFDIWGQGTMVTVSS VL: DIQLTQSPSSLSASVGDRVTITCRASQGVRSTLAWYQQKPGKAPKLLIYDASILESGVPSRFSGSGSGTDFTLTISSLQPEDFATYYCQQFNGYPLTFGQGTRLEIK	NO
HC-21/LC-21 (Ab21) (antibody, IgG1, V domains shown, From rat immunization/hybridoma; purified IgG in BLI; also called 021) VH: QIQLVQSGPELKKPGESVKISCKASGYTFTDYAVYWVIQAPGKGLKWMGWINTYTGKPTYADDFKGRFVFSLETSASTANLQISNLKNEDTATYFCARGAGMTKDYVMDAWGRGVLVTVS VL: SYELIQPPSASVTLGNTVSLTCVGDELSKRYAQWYQQKPDKTIVSVIYKDSERPSDISDRFSGSSSGTTATLTIHGTLAEDEADYYCLSTYSDDNLPVFGGGTKLTVL	NO
HC-7/LC-7 (Ab7) (antibody, IgG1, V domains shown, Purified IgG; also called 007) VH: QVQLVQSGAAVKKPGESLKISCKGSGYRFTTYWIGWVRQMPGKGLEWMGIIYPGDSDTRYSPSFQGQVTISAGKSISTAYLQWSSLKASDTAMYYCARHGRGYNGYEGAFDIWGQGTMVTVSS VL: DIAMTQSPPSLSAFVGDRVTITCRASQGIISSLAWYQQKPGKAPKLLIYDASSLESGVPSRFSGSGSGTDFTLTIRSLQPEDFATYYCQQFNSYPLTFGGGTKLEIK	NO

These measurements were taken from patent US20240360238A1.
